System Under Test: T1, full-length human Nectin-4 on cells (human, UniProt Q96NY8 32-510)
T1 construct: the cell is named under assay; also called CHO-Nectin-4 cells; Nectin-4-CHO
T1 sequence: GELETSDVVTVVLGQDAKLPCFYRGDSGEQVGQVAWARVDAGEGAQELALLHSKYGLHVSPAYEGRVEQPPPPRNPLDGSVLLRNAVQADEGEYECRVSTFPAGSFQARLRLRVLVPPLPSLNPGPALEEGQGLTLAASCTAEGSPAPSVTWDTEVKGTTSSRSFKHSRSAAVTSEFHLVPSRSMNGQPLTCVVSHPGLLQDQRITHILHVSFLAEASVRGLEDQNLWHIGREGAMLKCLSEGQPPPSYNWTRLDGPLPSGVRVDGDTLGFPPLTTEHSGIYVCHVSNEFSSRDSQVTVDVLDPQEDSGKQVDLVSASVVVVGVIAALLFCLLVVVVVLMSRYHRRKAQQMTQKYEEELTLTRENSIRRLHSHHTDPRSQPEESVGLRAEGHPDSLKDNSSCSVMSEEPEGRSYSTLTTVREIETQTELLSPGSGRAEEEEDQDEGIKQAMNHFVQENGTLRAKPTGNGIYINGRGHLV
Protocol Description: flow cytometry, SKBR3 cells (endogenous Nectin-4)
Procedure: The binding specificity of the disclosed anti-Nectin-4 antibodies was also assessed by FACS. Briefly, CHO-Nectin-4 cells (vs. parental CHO cells) or endogenous cell lines expressing Nectin-4 (T-47D) were incubated with dilutions of purified recombinant antibodies. Cells were washed, and specific antibody binding was detected with Alexa 647 labeled goat anti-mouse IgG antibody. Flow cytometric analysis was performed on a flow cytometry instrument (Intellicyte, IQue plus, Sartorius). […]
Quick reference for EC50 among some binders
Numbers only; they are read as nM.

Study these solved cases before continuing.
INSERT INTO assay_data (binder, value_reported) VALUES
  ('N4_mAb 1 (antibody, human IgG1, V domains shown, Tested as chimera (murine variable regions, human IgG1/kappa constants); not shown: human IgG1 constant region (Uniprot P01857); human Kappa light chain constant region (UniProt P01834)) VH: QVQLKQSGPGLVQPSQSLSITCTVSGFSLTNYGVNWVRQPPGKGLEWLGVIWSGGSTDYNAAFISRLSISKDISKSQVFFKMNSLQADDTAKYYCAREGYDGYAMDYWGQGTSVTVSS VL: DIQMTQSPASLSVSVGETVTITCRASENIFSSLAWYQQKQGKSPQLLVYGATNLADGVPSRFSGSGSGTQYSLKINSLQSEDFGTYWCQHFWGNPWTFGGGTKLEIK', 0.24),
  ('N4_mAb 2 (antibody, human IgG1, V domains shown, Tested as chimera (human IgG1/kappa constants); not shown: human IgG1 constant region (Uniprot P01857); human Kappa light chain constant region (UniProt P01834)) VH: QVQLKQSGPNLVQPSQSLSITCTVSGFSLTTYGAHWVRQSPGKGLEWLGVIWRGGSTDYNAAFMSRLSITKDNSKSQVFFKMNSLQADDTAIYYCAKIGYDGYAMDNWGQGTSVTVSS VL: DFQVTQSPASLSASVGETVTITCRTSENIHNYLAWYQQKQGKSPQLLVYNAKTLADGVPSRFSGSGSGTQYSLKINSLQPEDFGTYYCQHFWSSPWTFGGGTKLEIK', 1.8);

Now look at this one.
Exercise: # get_value(readout='EC50', item= N4_mAb 8 (antibody, human IgG1, V domains shown, Tested as chimera (murine variable regions, human IgG1/kappa constants); not shown: human IgG1 constant region (Uniprot P01857); human Kappa light chain constant region (UniProt P01834)) VH: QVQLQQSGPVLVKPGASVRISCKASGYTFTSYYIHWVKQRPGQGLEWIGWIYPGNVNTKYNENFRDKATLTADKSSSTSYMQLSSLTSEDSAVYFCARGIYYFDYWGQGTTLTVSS VL: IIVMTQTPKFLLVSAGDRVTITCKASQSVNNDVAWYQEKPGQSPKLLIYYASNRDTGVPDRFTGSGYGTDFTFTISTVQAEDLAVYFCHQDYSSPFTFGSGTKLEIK )
Solution: 0.05
